Assay: folding stability dG unfold (combined trypsin and chymotrypsin); higher = more stable
Note to self: values exactly at 2 kcal/mol are condition met. So folding stability dG unfold at or above 2 kcal/mol is condition met, below is condition not met.

Consider the following illustrative entries.
sequence-input | class
SAMLEEVEERAREIAERLREEYPDVEEFTVELELPLPDGRFLRVTVTIRRERDDEGDTFEVEVDVEEVDSAG [r14_788_TrMRF] | condition met
SAGRRSLVLLAPVDDPARAPTAEELARELLALGGTPATRPRAEPLEDDTLRVTFEAPGVDVTVLVDLRASAG [r5_144_TrMRF] | condition not met
TTVTTPKNGLININLTDKKGNKYTFTAPVKDPVETLEKLKKLIKDLFPEYKDVKVKVVSVDGINIKVVVDIS [r1_389_TrMRF] | condition met
SAGGSAGGSAGGMVIERPLPNGEPLLVELGRPASAPARVTVPNPGRPLGTITSLEELEERSAGGSAGGSAGG [r7_72_TrMRF] | condition not met
SAGGSAPPVKVDVEELDDDLVKVTVTFPGGPFTLKLYKDGKLLKEETVPEDETATFVLPKDALIVGSAGGSA [r15_581_TrMRF] | condition not met
SAGGSAGGSAGPEIELREDSLVIRVKAKEGEVIGVPEGLEVEGVVYDPSTGELTVVVRAPSAGGSAGGSAGG [r11_942_TrMRF] | condition not met
SAGGSAGGSAGGNYVVRIEHNGQPIMEQPFPGSLEDAKDYVKEIAQFFPPDKVKIEVYKFSAGGSAGGSAGG [r7_81_TrROS] | condition not met
SAGKMYLIVIKVDGKEYVIVIPEEEMSEEEIRKLISEELGISEEEVEIVEIVPVEPGESVEEALKKALESAG [r5_900_TrROS_Hall] | condition met
SAGGMTYVLPNGERLLVRVSVRTEPRLDPDRPELVLEPRVEIELFAVSPDLTLRPVPEELARELFEKESAGG [r13_809_TrMRF] | condition not met
SAGGIEIPVNPHPSEDGQPYVMFTLEIEPKDDNGKKQERPIPFMFDSPDDAEEFASEAAPDGYKIRISAGGS [r16_652_TrROS] | condition not met

Request: // inclusive: folding stability dG unfold at least 2 kcal/mol? input: MPNLKPALLVIPMKVESIEEAEEKVLAFAEELAEAFPNIKKIEVEILEIDEENGIVIAKITVEAEDSALDAS [r1_52_TrMRF]
Response: condition met

Request: // inclusive: folding stability dG unfold at least 2 kcal/mol? input: SAGGSAGGSASMSYITKVEYKESPEGKLITTTTTTDPTSPNDVKTTTTVTPLPPLNPSPELKSAGGSAGGSA [r18_409_JUSTAS]
Response: condition not met

Request: // inclusive: folding stability dG unfold at least 2 kcal/mol? input: SAAKIYILPGNNVILVRPPLPNGPFGELVIPTKPSELENPEFLKEIVDEIRKAGIPFEATILPPGVPPESAG [r14_60_TrMRF]
Response: condition not met

Request: // inclusive: folding stability dG unfold at least 2 kcal/mol? input: SAGGSAGGSAGMTLKVEVKVKVKVFDENGKLVREEEVTVEVEIELEPAPELRFLSEEELKSAGGSAGGSAGG [r17_325_TrROS_Hall]
Response: condition met

###

Assay: folding stability dG unfold from chymotrypsin proteolysis; higher = more stable
metric-name: folding stability dG unfold (kcal/mol)
Record the value in kcal/mol, omitting the unit from your answer.

Some solved entries appear below for comparison.
sequence-input | folding stability dG unfold / kcal/mol
SAGGSAGGSAGGAAPNTFKVRLELKVKVEKRTYKNEDGSTYEVDSISVELKIEIEPLPDSAGGSAGGSAGGS [r10_1212_TrROS_Hall] | 5.69
SAGGVLLEFPDGTTVEITVTTSTSTFKDPTTDKTVTKSSTTITVTRKTPDPVVTPVPASEAQRIFDSTSAGG [r13_809_JUSTAS] | 2.96
SAGGSAGGKLPKNIEKIEFNKKTNIIKVKVKSLEDLKKLAEKLNFEIVSVEEKDGYIYIKIKKKSAGGSAGG [r6_380_TrROS_Hall] | 2.8
SAGGSAGGSMRFPPGQKIEIEEWKHNPNGGNYQVSIRFKDGKKKTFTSPEDIDRLIKAGHVKISAGGSAGGS [r12_455_TrROS] | 1.33
SAARVTVTYDPATNTVTVTVEVEVDGVTVTVTATVTFVDGRLVLTVTVEVRPPPPPPSAEQLAALRAAASAG [r14_930_TrROS_Hall] | 2.69
SAGGSAGGSAGGGKSITKVYTLPNGGKAVAVYNPETGKVEVYFFKPNGKLLEKKTFKAKSAGGSAGGSAGGS [r10_1044_TrMRF] | 2.84
SAGGSAGGSAGGKIYKKKNGTYKIIIYDKKTKKVYEIEIPVSKEDKPKILKEAKELAKKSAGGSAGGSAGGS [r10_379_TrROS_Hall] | 1.49
PLVLRLPDGAEAVRVEFFPERNTVVAFFRAPDRLLVVEVRFEPVGGGLLAPVRVRALPVPPTPEQLRLLAES [r1_154_TrMRF] | 2.58
SAGGSAGGSASLDPVVVTVTRYPTGVTTTTVSSRPGGEPVTTTTTYDPVSPVAPLPASRLASAGGSAGGSAG [r3_336_JUSTAS] | 0.59
SAMTKTETFTFDDVEITVTTTEVTLPNGEKKDVYTLTKYTVDPSTGTTTPSSKTFSSKEEMEAALKASLSAG [r14_500_JUSTAS] | 4.04

Request: Suppose we examine the sequence SAGGSAGGSAGKFKLKIKEVHWRENPNGYEQVKVEIKIPGEEKKIWFPPGMSIDQILDQLSAGGSAGGSAGG [r11_1056_TrROS] ; what folding stability dG unfold value has been reported?
Response: 1.13

Request: Suppose we examine the sequence SSSTVTVTVTFPDGTVVTVDFTGSLAEVEAAVREWVRQYAAEQGLDPREVRVTITFADDGTTRERTLPLRSA [r9_1193_JUSTAS] ; what folding stability dG unfold value has been reported?
Response: 2.42

Request: Suppose we examine the sequence SAGKPKVIFIEGMTKEQLRAAIDEAKKKLKPGDIIVVRSKEAADALKELLPDLTVYLVDEETKEVKKLPSAG [r5_391_TrROS_Hall] ; what folding stability dG unfold value has been reported?
Response: 2.1

Request: Suppose we examine the sequence SAGGSKPVKVTVRRDPKNPDKWTVTVTAGDKTTTLTFDPNDEAAVRAALEAALPADEVLEELEFEDLLSAGG [r13_519_JUSTAS] ; what folding stability dG unfold value has been reported?
Response: 2.99

Request: Suppose we examine the sequence SAGGSAGGTIRIPPAARNMMKELQKQGFVIEEIKIDEIERTENGPPWIEIDFEIKKLPPEALKDSAGGSAGG [r6_771_TrROS] ; what folding stability dG unfold value has been reported?
Response: -0.317

Request: Suppose we examine the sequence SAGGSAGGSAGMKPGETYLVRIRVKVDGKWYEKEVKFKSLEELKKAGIENIEEIEIRKLPSAGGSAGGSAGG [r17_290_TrROS_Hall] ; what folding stability dG unfold value has been reported?
Response: 2.72

Request: Suppose we examine the sequence SAGKIPPIKDIEPNPDNGMLMITIPFPDDGKLKVRIENKGQDQEYEFPPGMSFMIPPSNAPIKIEIEWDSAG [r14_96_TrROS] ; what folding stability dG unfold value has been reported?
Response: 0.82

Request: Suppose we examine the sequence SSLSIPGATKEEFEEIAEELEKKNPGVKVTVTYDPENGVITITITKPVKDKKGNLIGTETEVITITVTKPSA [r9_378_JUSTAS] ; what folding stability dG unfold value has been reported?
Response: 2.26

Request: Suppose we examine the sequence SAGMNLSPEEIAERIREEAKKKYPNSEVEVRIVSQPPTTIVLEVKITIYFPEEGGSIIEEPRVITIDRLSAG [r14_187_JUSTAS] ; what folding stability dG unfold value has been reported?
Response: 2.17

Request: Suppose we examine the sequence SAGGSAGGSAGMKTYTAEEIKNLPPGAKVIEVDGKLKIEIDGKIYTIEPGETVEIEPLEESAGGSAGGSAGG [r17_91_TrROS_Hall] ; what folding stability dG unfold value has been reported?
Response: 2.04

Request: Suppose we examine the sequence SAGGMPKYFAEVDTEPHGDKVKITLRIRDPNGVERELTFELPLSEVIKLLKELPEEFEVFELKFSDESAGGS [r16_298_TrMRF] ; what folding stability dG unfold value has been reported?
Response: 3.12

Request: Suppose we examine the sequence SAGGSAGGSAGGKITFAPKTTLLLTATIPVTVYSLHPDGTLTTETRSATITFTIPPELLSAGGSAGGSAGGS [r10_383_TrMRF] ; what folding stability dG unfold value has been reported?
Response: 4.1

Request: Suppose we examine the sequence SAGGSAGGSKTPVFYIPPSLKDPEKAIELLEEIRKKIPPGTKIAVIAPGGGIPELKKAGLITASAGGSAGGS [r12_992_TrMRF] ; what folding stability dG unfold value has been reported?
Response: 0.518

Measured values drawn from the supplement of paper PMC12764529 for this set.
